conditions: human gut metagenome, 24 h, 2 µM; also: call rule not given here

{"compound": "C[C@@H]1CC[C@H]2[C@@H](C)C(=O)O[C@@H]3O[C@@]4(C)CC[C@@H]1[C@]32OO4", "Bacterial Biotransformation": "Compound metabolized"}
{"compound": "CN1CCN(C2=Nc3cc(Cl)ccc3Nc3ccccc32)CC1", "Bacterial Biotransformation": "Compound NOT metabolized"}
{"compound": "COC(=O)C1=C(C)NC(C)=C(C(=O)OC(C)C)C1c1cccc2nonc12 (centres undefined)", "Bacterial Biotransformation": "Compound metabolized"}
{"compound": "CN1C(=O)CC(C)(c2ccccc2)C1=O (centres undefined) [METHSUXIMIDE]", "Bacterial Biotransformation": "Compound NOT metabolized"}
{"compound": "CN1CCOC(c2ccccc2)c2ccccc2C1 (centres undefined)", "Bacterial Biotransformation": "Compound metabolized"}
{"compound": "CNCCC(Oc1ccc(C(F)(F)F)cc1)c1ccccc1 (centres undefined)", "Bacterial Biotransformation": "Compound NOT metabolized"}
{"compound": "Cc1cn([C@H]2C[C@H](N=[N+]=[N-])[C@@H](CO)O2)c(=O)[nH]c1=O", "Bacterial Biotransformation": "Compound NOT metabolized"}
{"compound": "COC1=CC(=O)C[C@@H](C)[C@]12Oc1c(Cl)c(OC)cc(OC)c1C2=O", "Bacterial Biotransformation": "Compound NOT metabolized"}
{"compound": "O=C(CCCN1CCC(O)(c2ccc(Cl)cc2)CC1)c1ccc(F)cc1", "Bacterial Biotransformation": "Compound NOT metabolized"}

----------
assay: The drug is tested on WLS-098 corresponding to human gut metagenome with ENA study accession number: PRJEB37062 and ENA sample accession number: ERS12561754 for biotransformation under anaerobic condition. The drug concentrations were measured over 9 timepoints collected between 0 and 24 hours of incubation by liquid-chromatography-coupled mass spectrometry (LC–MS); conditions: 2 µM
reported_endpoint: Bacterial Biotransformation

{"compound": "OC(CCN1CCCCC1)(c1ccccc1)C1CC2C=CC1C2 (centres undefined)", "value_measured": "Compound metabolized"}
{"compound": "COc1ccccc1OCC(O)COC(N)=O (centres undefined)", "value_measured": "Compound NOT metabolized"}
{"compound": "CCN(CC)CCNC(=O)c1cc(Cl)c(N)cc1OC [METOCLOPRAMIDE]", "value_measured": "Compound NOT metabolized"}
{"compound": "CC(C)(C#N)c1cc(Cn2cncn2)cc(C(C)(C)C#N)c1", "value_measured": "Compound metabolized"}
{"compound": "CC(C)(Oc1ccc(CCNC(=O)c2ccc(Cl)cc2)cc1)C(=O)O [BEZAFIBRATE]", "value_measured": "Compound metabolized"}
{"compound": "O=c1n(CCCN2CCN(c3cccc(Cl)c3)CC2)nc2ccccn12", "value_measured": "Compound metabolized"}
{"compound": "COc1c(C)c2c(c(O)c1C/C=C(\\C)CCC(=O)OCCN1CCOCC1)C(=O)OC2 [MYCOPHENOLATE MOFETIL]", "value_measured": "Compound metabolized"}
{"compound": "CN/C(=N/CCSCc1nc[nH]c1C)NC#N", "value_measured": "Compound metabolized"}
{"compound": "CCCC(=O)Nc1ccc(OCC(O)CNC(C)C)c(C(C)=O)c1 (centres undefined)", "value_measured": "Compound metabolized"}

----------
test: The drug is tested on WLS-090 corresponding to human gut metagenome with ENA study accession number: PRJEB37062 and ENA sample accession number: ERS12561753 for biotransformation under anaerobic condition. The drug concentrations were measured over 9 timepoints collected between 0 and 24 hours of incubation by liquid-chromatography-coupled mass spectrometry (LC–MS); conditions: 2 µM
reported_endpoint: Bacterial Biotransformation

{"compound": "C[C@@H](CO)NC(=O)[C@@H]1C=C2c3cccc4[nH]cc(c34)C[C@H]2N(C)C1.O=C(O)/C=C\\C(=O)O [ERGONOVINE MALEATE]", "value_measured": "Compound metabolized"}
{"compound": "CCCc1nn(C)c2c(=O)[nH]c(-c3cc(S(=O)(=O)N4CCN(C)CC4)ccc3OCC)nc12.O=C(O)CC(O)(CC(=O)O)C(=O)O [SILDENAFIL CITRATE]", "value_measured": "Compound metabolized"}
{"compound": "O=C1[C@H](CC[C@H](O)c2ccc(F)cc2)[C@@H](c2ccc(O)cc2)N1c1ccc(F)cc1", "value_measured": "Compound metabolized"}

----------
test: The drug is tested on Z-006 corresponding to mouse gut metagenome with ENA study accession number: PRJEB37062 and ENA sample accession number: ERS12561806 for biotransformation under anaerobic condition. The drug concentrations were measured over 9 timepoints collected between 0 and 24 hours of incubation by liquid-chromatography-coupled mass spectrometry (LC–MS); conditions: 2 µM

{"compound": "CN(C)CCc1c[nH]c2ccc(Cn3cncn3)cc12.O=C(O)c1ccccc1 [RIZATRIPTAN BENZOATE]", "Bacterial Biotransformation": "Compound NOT metabolized"}
{"compound": "Nc1nc2ccc(OC(F)(F)F)cc2s1", "Bacterial Biotransformation": "Compound NOT metabolized"}
{"compound": "CC(Oc1c(Cl)cccc1Cl)C1=NCCN1 (centres undefined)", "Bacterial Biotransformation": "Compound NOT metabolized"}
{"compound": "Br.CN(C)CCCC1(c2ccc(F)cc2)OCc2cc(C#N)ccc21 (centres undefined) [CITALOPRAM HYDROBROMIDE]", "Bacterial Biotransformation": "Compound NOT metabolized"}
{"compound": "CCN(CC)CCOCCOC(=O)C1(c2ccccc2)CCCC1.O=C(O)CC(O)(CC(=O)O)C(=O)O [CARBETAPENTANE CITRATE]", "Bacterial Biotransformation": "Compound NOT metabolized"}
{"compound": "CCCCc1nc(Cl)c(CO)n1Cc1ccc(-c2ccccc2-c2nn[nH]n2)cc1", "Bacterial Biotransformation": "Compound NOT metabolized"}
{"compound": "Cc1cc2c(cc1S(N)(=O)=O)S(=O)(=O)CCC2", "Bacterial Biotransformation": "Compound NOT metabolized"}
{"compound": "Clc1ccc(Cn2c(CN3CCCC3)nc3ccccc32)cc1", "Bacterial Biotransformation": "Compound NOT metabolized"}
{"compound": "CCCCCCOC(=O)/N=C(/N)c1ccc(NCc2nc3cc(C(=O)N(CCC(=O)OCC)c4ccccn4)ccc3n2C)cc1.CS(=O)(=O)O [DABIGATRAN ETEXILATE MESYLATE]", "Bacterial Biotransformation": "Compound NOT metabolized"}
{"compound": "NS(=O)(=O)c1cc2c(cc1Cl)N=C(CSCc1ccccc1)NS2(=O)=O [BENZTHIAZIDE]", "Bacterial Biotransformation": "Compound NOT metabolized"}
{"compound": "CCN(CC)C(=O)/C(C#N)=C/c1cc(O)c(O)c([N+](=O)[O-])c1", "Bacterial Biotransformation": "Compound metabolized"}
{"compound": "CCCc1nn(C)c2c(=O)[nH]c(-c3cc(S(=O)(=O)N4CCN(C)CC4)ccc3OCC)nc12.O=C(O)CC(O)(CC(=O)O)C(=O)O [SILDENAFIL CITRATE]", "Bacterial Biotransformation": "Compound NOT metabolized"}
{"compound": "CC[C@@H](CO)NC(=O)[C@@H]1C=C2c3cccc4c3c(cn4C)C[C@H]2N(C)C1.O=C(O)/C=C\\C(=O)O [METHYSERGIDE MALEATE]", "Bacterial Biotransformation": "Compound NOT metabolized"}
{"compound": "Nc1c2c(nc3ccccc13)CCCC2", "Bacterial Biotransformation": "Compound NOT metabolized"}
{"compound": "COc1cc2nc(N3CCN(C(=O)c4ccco4)CC3)nc(N)c2cc1OC", "Bacterial Biotransformation": "Compound NOT metabolized"}
{"compound": "O=C(NCc1ccccc1)OCCO [BURAMATE]", "Bacterial Biotransformation": "Compound NOT metabolized"}
{"compound": "CC(C)NCC(O)COc1ccc(CCOCC2CC2)cc1 (centres undefined)", "Bacterial Biotransformation": "Compound NOT metabolized"}
{"compound": "c1ccc([C@H]2CN3CCSC3=N2)cc1", "Bacterial Biotransformation": "Compound metabolized"}
{"compound": "CCC(COC(=O)c1cc(OC)c(OC)c(OC)c1)(c1ccccc1)N(C)C.O=C(O)/C=C\\C(=O)O (centres undefined)", "Bacterial Biotransformation": "Compound NOT metabolized"}
{"compound": "Nc1ccc(/N=N/c2ccccc2)c(N)n1", "Bacterial Biotransformation": "Compound metabolized"}
{"compound": "Cc1ccc(S(=O)(=O)NC(=O)NN2CC3CCCC3C2)cc1 (centres undefined) [GLICLAZIDE]", "Bacterial Biotransformation": "Compound metabolized"}
{"compound": "C=CCc1ccccc1OCC(O)CNC(C)C (centres undefined)", "Bacterial Biotransformation": "Compound NOT metabolized"}
{"compound": "CO[C@]12C[C@@H](COC(=O)c3cncc(Br)c3)CN(C)[C@@H]1Cc1cn(C)c3cccc2c13", "Bacterial Biotransformation": "Compound metabolized"}
{"compound": "C=CCN1CC[C@]23c4c5ccc(O)c4O[C@H]2C(=O)CC[C@@]3(O)[C@H]1C5", "Bacterial Biotransformation": "Compound NOT metabolized"}
{"compound": "CC[C@H](C)C(=O)O[C@H]1C[C@@H](C)C=C2C=C[C@H](C)[C@H](CC[C@@H]3C[C@@H](O)CC(=O)O3)[C@H]21", "Bacterial Biotransformation": "Compound NOT metabolized"}
{"compound": "COc1ccc2[nH]c([S+]([O-])Cc3ncc(C)c(OC)c3C)nc2c1 (centres undefined)", "Bacterial Biotransformation": "Compound NOT metabolized"}
{"compound": "C[C@@H](CO)NC(=O)[C@@H]1C=C2c3cccc4[nH]cc(c34)C[C@H]2N(C)C1.O=C(O)/C=C\\C(=O)O [ERGONOVINE MALEATE]", "Bacterial Biotransformation": "Compound NOT metabolized"}
{"compound": "C[C@@H]1C[C@H]2[C@@H]3CCC4=CC(=O)C=C[C@]4(C)[C@@]3(F)[C@@H](O)C[C@]2(C)[C@@]1(O)C(=O)CO", "Bacterial Biotransformation": "Compound NOT metabolized"}
{"compound": "Cc1ccnc2c1NC(=O)c1cccnc1N2C1CC1", "Bacterial Biotransformation": "Compound NOT metabolized"}
{"compound": "O=c1[nH]c2ccccc2n1CCCN1CCC(n2c(=O)[nH]c3cc(Cl)ccc32)CC1", "Bacterial Biotransformation": "Compound NOT metabolized"}
{"compound": "O=P(O)(O)O.c1ccc(CN(CC2=NCCN2)c2ccccc2)cc1 [ANTAZOLINE PHOSPHATE]", "Bacterial Biotransformation": "Compound NOT metabolized"}
{"compound": "C#C[C@]1(O)CC[C@H]2[C@@H]3CCC4=CC(=O)CC[C@@H]4[C@H]3CC[C@@]21CC", "Bacterial Biotransformation": "Compound metabolized"}
{"compound": "CCN(CC)CCOC(=O)C(Cc1cccc2ccccc12)CC1CCCO1.O=C(O)C(=O)O (centres undefined) [NAFRONYL OXALATE]", "Bacterial Biotransformation": "Compound metabolized"}
{"compound": "CCc1nc(N)nc(N)c1-c1ccc(Cl)cc1", "Bacterial Biotransformation": "Compound NOT metabolized"}
